Assay: qHTS RealTime-Glo MT Cell Viability Assay in HEK293 cells - 32 hour (AID 1224868); further: nearly all actives have a fitted effect of over 50% in size
Conditions: RealTime-Glo luminescence; series mostly up to 76.8 µM
Inconclusive results are not listed. Activity calls are given as the source filed them. The call rests on the fitted dose curve; in most records, active means well fitted cell-killing curve with a large enough effect in the repeat runs; inconclusive means weak or mixed curves, or effect the other way; inactive means flat fitted curve, though single readings scatter.
Choose one outcome from this list and give only that: active, inactive

CC1(C)OC(=O)NC1=O    inactive
COc1cc([C@H]2Oc3cc([C@H]4Oc5cc(O)cc(O)c5C(=O)[C@@H]4O)ccc3O[C@@H]2CO)ccc1O    inactive
Nc1ccc2c(O)cc(S(=O)(=O)O)cc2c1    active
CNC[C@H](O)c1ccc(O)c(O)c1    inactive
Cc1ccc2c(c1)C(=O)OC2=O    inactive

Problem: Check the results log: what was the call for CC(=O)[C@H]1CC[C@H]2[C@@H]3CC=C4C[C@@H](O)CC[C@]4(C)[C@H]3CC[C@]12C ?
Solution: inactive

Problem: Entry FC(F)(F)C(Cl)Br (configuration not stated) : call = ?
Solution: inactive

----------
Assay: qHTS assay to identify small molecule antagonists of the peroxisome proliferator-activated receptor gamma (PPARg) signaling pathway - cell viability counter screen (AID 743194); further: nearly all actives have a fitted effect of over 55% in size
Conditions: PPARg-bla HEK293H viability, CellTiter-Glo luminescence, 17 h, co-treated with 50 nM rosiglitazone; series mostly up to 62.6 µM
Records with an inconclusive call do not appear. Calls of active or inactive are those of the source. Calls follow the shape of the dose curve; as a rule, active = well fitted cell-killing curve with a large enough effect in the repeat runs; inconclusive = weak or mixed curves, or effect the other way; inactive = no such curve, though single readings can be large or run the other way.
In this exercise, the only acceptable responses are true (1) for active, false (0) for inactive

Solved cases (3 shown):
Nc1cc(Cl)c(N)c(Cl)c1    false (0)
Nc1ccc(O)c(N)c1    true (1)
CCC(Cc1c(I)cc(I)c(N)c1I)C(=O)O (configuration not stated)    false (0)

Problem: GET /call?item= Oc1c(Cl)ccc(Cl)c1Cl returns the recorded outcome of this test.
Solution: false (0)

Problem: In this assay, the call recorded for CCCCCCCCCCCCCO was what?
Solution: false (0)

----------
Experiment: qHTS assay for identifying genotoxic compounds that show differential cytotoxicity against isogenic chicken DT40 cell lines with known DNA damage response pathways - Rev3 mutant cell line (AID 743014); further: nearly all actives have a fitted effect of over 55% in size
Conditions: chicken DT40 Rev3-/- viability, CellTiter-Glo, 40 h; series mostly up to 68.4 µM
Excerpt: National Center for Advancing Translational Sciences [NCATS] NIH Chemical Genomics Center [NCGC] U.S. Environmental Protection Agency [EPA] National Institutes of Environmental Health Sciences [NIEHS] National Toxicology Program [NTP] U.S. Food and Drug Administration [FDA] DNA repair pathways play a critical role in cellular homeostasis by repairing DNA damage induced by endogenous processes and xenobiotics. […]
Results filed as inconclusive are left out. Active and inactive are the calls of the source. The call rests on the fitted dose curve; in most records, active means well fitted cell-killing curve with a large enough effect in the repeat runs; inconclusive means weak or mixed curves, or effect the other way; inactive means no such curve, though single readings can be large or run the other way.
Return exactly one item of True (active), False (inactive)

Past entries and their recorded results:
IC(I)I    False
COC(=O)c1ccc(C)cc1    False
C=CC(=O)OCCCC    False

Problem: Please let me know the test result on file for OCCNCCO .
Solution: False

Problem: Recorded call for C/C=C/C(=O)N(CC)c1ccccc1C ?
Solution: True

----------
Assay: qHTS assay for small molecule activators of the heat shock response signaling pathway - cell viability counter screen (AID 743209); further: nearly all actives have a fitted effect of over 50% in size
Settings: HSE-bla HeLa viability, CellTiter-Glo luminescence, 5 h; series mostly up to 62.6 µM
Source text: U.S. Tox21 Program National Center for Advancing Translational Sciences [NCATS] NIH Chemical Genomics Center [NCGC] U.S. Environmental Protection Agency [EPA] National Institutes of Environmental Health Sciences [NIEHS] National Toxicology Program [NTP] U.S. Food and Drug Administration [FDA] Tox21 Assay Overview: Various chemicals, environmental and physiological stress conditions may lead to the activation of heat shock response/ unfolded protein response (HSR/UPR). […]
Results filed as inconclusive are left out. Calls of active or inactive are those of the source. Calls come from the whole dose curve; as a rule, active = well fitted cell-killing curve with a large enough effect in the repeat runs; inconclusive = weak or mixed curves, or effect the other way; inactive = no such curve, though single readings can be large or run the other way.
Test Readout: outcome

Answered examples (8):
CCCCCC1C(=O)CCC1CC(=O)OC (stereo not given)    inactive
O=C(O)c1cc(=O)[nH]c(=O)[nH]1    inactive
CC(=O)[C@H]1CC[C@H]2[C@@H]3CC=C4C[C@@H](O)CC[C@]4(C)[C@H]3CC[C@]12C    inactive
Nc1cc(Cl)c(N)c(Cl)c1    inactive
CCC(=O)O[C@H]1[C@H](O[C@@H]2[C@@H](C)[C@H](O[C@H]3C[C@@](C)(OC)[C@@H](O)[C@H](C)O3)[C@@H](C)C(=O)O[C@H](CC)[C@@](C)(O)[C@H](O)[C@@H](C)C(=O)[C@H](C)C[C@@]2(C)O)O[C@H](C)C[C@@H]1N(C)C    inactive
CC(=O)OC(C)C    inactive
Nc1ccc(O)c(N)c1    inactive
C=CCCCCCCCCCC    inactive

Problem: Read the entry CC(C)(Oc1ccc(Cl)cc1)C(=O)O and write its reported outcome.
Solution: inactive

Problem: Provide measured outcome value, entry: Oc1ccc(C(c2ccc(O)cc2)C(Cl)(Cl)Cl)cc1
Solution: inactive
